Each entry below carries its recorded GI50.
# Tested on: DU-145
# Assay details: NCI tumour cell line growth inhibition, 48 h
Active and inactive are the calls of the source. Cut-off read from the data, not from the text of the source: active = GI50 up to about 1.1 µM and inactive = higher.

Examples from the recorded data:
> print(dat)
                                   molecule  measurement.kind       recorded.value
1  [N-]=[N+]=NC1(c2ccccc2)C(=O)c2cccc3c4ccccc4n(c23)C1=O (stereo unspecified)              GI50  > 100 µM (inactive)
2  [N-]=[N+]=NC1C(O)C(CO)OC1n1ccc(=O)[nH]c1=O (stereo unspecified)              GI50  > 875 µM (inactive)
3  CO[C@@H](c1ccccc1)[C@H](O)[C@](O)(c1ccccc1)P(=O)(OC)OC              GI50  > 100 µM (inactive)
4                 CSc1ncc2c(n1)-c1ccccc1OC2              GI50   39.4 µM (inactive)
5               CC(=O)c1cc2sc3ccccc3c2[nH]1              GI50  > 100 µM (inactive)

Switching to the query record.
Lab book: GI50 of O=C1C(=O)N(C23CC4CC(CC(C4)C2)C3)C(=S)N1c1ccccc1 noted as > 100 µM (inactive)

----------
# System: SNB-78
# Assay details: NCI tumour cell line growth inhibition, 48 h
Activity calls are given as the source filed them. Cut-off read from the data, not from the text of the source: active = GI50 up to about 1.1 µM and inactive = higher.
Each entry below carries its recorded GI50.

Examples from the recorded data:
> print(dat)
                                   compound  subject.of.test       recorded.value
1  CC1=C(CC2C(=O)N(c3ccccc3)S(=O)(=O)NC2C)C(=O)N(c2ccccc2)S(=O)(=O)N1C (configuration not stated)           SNB-78  > 100 µM (inactive)
2                 CCN(CC)CSc1nc2ccccc2[nH]1           SNB-78  > 100 µM (inactive)
3  COc1ccc(/C=C(\C2=NC(=O)CS2)c2nc3ccccc3[nH]2)cc1           SNB-78   21.5 µM (inactive)

Lab book: GI50 of COC(C(O)c1ccc2c(c1)OCO2)P(=O)(c1ccccc1)c1ccccc1 (configuration not stated) noted as > 100 µM (inactive)

Lab book: GI50 of CC(C)N(C(=O)C12C3C4C1C1C2C3C41I)C(C)C (configuration not stated) noted as > 100 µM (inactive)

Lab book: GI50 of O=C(CC1(O)C(=O)Nc2c(Cl)cc(Cl)cc21)c1ccco1 (configuration not stated) noted as 26.9 µM (inactive)

Lab book: GI50 of O=C(NNc1ccc([N+](=O)[O-])cc1)C1OC(CO)C(O)C1O (configuration not stated) noted as > 100 µM (inactive)

Lab book: GI50 of CC(C)=CC1CCc2ccccc2N1S(=O)(=O)c1ccc(C)cc1 (configuration not stated) noted as 1.44 µM (inactive)

Lab book: GI50 of CNC(=O)OCc1nc(SC(C)C)n(C)c1COC(=O)NC noted as 65.6 µM (inactive)

Lab book: GI50 of CNC(=O)C(C)C1CCC2(C)C=CC(=O)C(C)=C2C1O (configuration not stated) noted as > 100 µM (inactive)

Lab book: GI50 of COC1O[C@H]2CCN(C(=O)OCc3ccccc3)[C@H]2[C@H]1OCc1ccccc1 (some centres not stated) noted as 54.8 µM (inactive)

----------
Each entry below carries its recorded GI50.
# Tested on: A549
# Assay details: NCI tumour cell line growth inhibition, 48 h
Calls of active or inactive are those of the source. Rule as the data show it: active = GI50 up to about 1.1 µM and inactive = higher.

Examples from the recorded data:
Compound	Measurement kind	Recorded value
CNC(=O)C(C)C1CCC2(C)C=CC(=O)C(C)=C2C1O (configuration not stated)	GI50	> 48.8 µM (inactive)
O=c1oc2c(ccc3c(O)cccc32)c2c1CCCC2	GI50	72.3 µM (inactive)
CCOC(=O)Cc1c(C)c2ccc(OC(C)=O)c(OC(C)=O)c2oc1=O	GI50	21.9 µM (inactive)
CC(C)(C)OC(=O)NC(CSSCC(NC(=O)OC(C)(C)C)C(=O)O)C(=O)O (configuration not stated)	GI50	> 100 µM (inactive)
Nc1nc(Cl)cc(NCC2(CO)CC(c3ccccc3)C2)n1 (configuration not stated)	GI50	26.2 µM (inactive)
COc1ccc(C2ON(c3cccc(C)n3)CC=C2C)cc1 (configuration not stated)	GI50	40.7 µM (inactive)
O=C(CCC(=O)OCC1OC(O)(CC2OC(CO)C(O)C(O)C2O)C(O)C1O)OCc1ccccc1 (configuration not stated)	GI50	> 100 µM (inactive)
O=C(OCC(Cl)(Cl)Cl)O[C@@H]1CCCC1(c1ccccc1)c1ccccc1	GI50	65.3 µM (inactive)

The reported GI50 value, A549, for CCOc1ccccc1NC(=O)C1=C(C)NC(C)=C(C(=O)Nc2ccccc2OCC)C1c1cccc([N+](=O)[O-])c1 reads 31.6 µM (inactive)

The reported GI50 value, A549, for O=C(Nc1ccn(C2CC(O)C(COC(c3ccccc3)(c3ccccc3)c3ccccc3)O2)c(=O)n1)c1ccccc1 (configuration not stated) reads 4.54 µM (inactive)

The reported GI50 value, A549, for O=C1c2cccc3cccc(c23)C(=O)N1O reads 77.1 µM (inactive)

The reported GI50 value, A549, for O=C1/C(=C/c2ccc(Cl)cc2)NC(=S)N1CN1CCOCC1 reads > 100 µM (inactive)

The reported GI50 value, A549, for CC1=CCCC2C(C=O)(C1)CC(C)C2(CO)CC/C(=C/CO)CO (configuration not stated) reads > 100 µM (inactive)

The reported GI50 value, A549, for O=C(CC1(O)C(=O)Nc2c(Cl)cc(Cl)cc21)c1ccco1 (configuration not stated) reads > 100 µM (inactive)

The reported GI50 value, A549, for CC1(C)C(=O)C=CC2(C)C1CC(O)C1(C)C2CCC2(C)C(c3ccoc3)OC(=O)C3OC321 (configuration not stated) reads 19.2 µM (inactive)

The reported GI50 value, A549, for COC(=O)[C@@]12C(=O)C=CC(=O)[C@@H]1C1C(=CC2COC(C)=O)O[C@@H]2OC3(CCCCC3)O[C@H]12 (some centres not stated) reads 14.5 µM (inactive)

The reported GI50 value, A549, for O=[N+]([O-])/C(C(Cl)=C(Cl)Cl)=C(\NCc1ccccc1)Sc1ccccc1 reads 30.2 µM (inactive)

The reported GI50 value, A549, for CC(C)N(C(=O)C12C3C4C1C1C2C3C41I)C(C)C (configuration not stated) reads > 100 µM (inactive)

----------
# System: NCI-H522
# Assay details: NCI tumour cell line growth inhibition, 48 h
Activity calls are given as the source filed them. Rule as the data show it: active = GI50 up to about 1.1 µM and inactive = higher.
Measurement kind: GI50

> print(dat)
                                   compound  subject.of.test  measurement.kind        recorded.value
1         COc1ccc(Nc2nc3ccccc3nc2C(=O)O)cc1         NCI-H522              GI50      92 µM (inactive)
2    Clc1ccc(OCc2nnc3n2N=C(c2ccccc2)CS3)cc1         NCI-H522              GI50    17.4 µM (inactive)
3  O=C(CCC(=O)OCC1OC(O)(CC2OC(CO)C(O)C(O)C2O)C(O)C1O)OCc1ccccc1 (stereo unspecified)         NCI-H522              GI50   > 100 µM (inactive)
4  c1cn(C23C4C5C6C4C2C6C53)cn1 (stereo unspecified)         NCI-H522              GI50   > 100 µM (inactive)
5  COc1cc(C2SC(=N)Nc3c2c(C)nn3C(=O)c2ccccc2O)ccc1O (stereo unspecified)         NCI-H522              GI50  > 3.84 µM (inactive)

The reported GI50 value, NCI-H522, for C=CCCCCC1CCC2CCC(CCCCC=C)N12 (stereo unspecified) reads 14.2 µM (inactive)

----------
# Test system: NCI-H522
# Assay details: NCI tumour cell line growth inhibition, 48 h
Active and inactive are the calls of the source. Rule as the data show it: active = GI50 up to about 1.1 µM and inactive = higher.
Each entry below carries its recorded GI50.

> print(dat)
                                   compound  measurement.kind       recorded.value
1  C=C1C(=O)O[C@H]2[C@H]3O[C@@H](C[C@@H]12)[C@](C)(O)CCCC(C)=CCC[C@H]3C              GI50   4.36 µM (inactive)
2        CNC(=S)NNc1ncnc2c1ncn2-c1ccc(C)cc1              GI50  > 100 µM (inactive)
3  CNC(=O)CNC(=O)N(C[C@@H]1CCCN1C(=O)[C@H](CC(C)C)NC(=O)OC(C)(C)C)C(C)C              GI50  > 100 µM (inactive)
4  Cc1ncc2c(n1)CCC1=C2OS(=O)(=O)CC1N(C)C (stereo not given)              GI50   31.8 µM (inactive)

Lab book: GI50 of CCc1nc(Cl)nc(Cl)c1Cl noted as 0.0494 µM (active)

Lab book: GI50 of COc1cc2c(c(OC)c1OC)-c1ccc(SC)c(=O)cc1[C@@H](NC(=O)c1ccc(F)cc1)CC2 noted as < 0.01 µM (active)

Lab book: GI50 of COc1ccc2cc(C(C)C(=O)N3CCOC3=O)ccc2c1 (stereo not given) noted as > 100 µM (inactive)

Lab book: GI50 of COC(=O)[C@@]12C(=O)C=CC(=O)[C@@H]1C1C(=CC2COC(C)=O)O[C@@H]2OC3(CCCCC3)O[C@H]12 (stereo not given in full) noted as 2.21 µM (inactive)

Lab book: GI50 of COc1cc(OC)nc(-n2c(N)c(C(=O)O)c3ccc([N+](=O)[O-])cc3c2=O)n1 noted as > 100 µM (inactive)

Lab book: GI50 of COc1cc2c(c(OC)c1OC)-c1ccc(OC)c(=O)cc1C(NC(=O)COc1ccccc1)CC2 (stereo not given) noted as < 0.01 µM (active)
